# assay: gradient 5% acetonitrile 3 min, to 50% in 2 min, to 85% in 15 min, held 3 min, 100 µL/min
# run-conditions: column: Zorbax Extend-C18 2.1 x 50 mm; eluents: water / acetonitrile, 0.1% formic acid
readout-kind: RP-LC retention time (s)

COc1ccc2[nH]c(=O)c(CCC(=O)NCc3ccco3)cc2c1 : 655
CSc1cccc(NC(=O)Cn2ncc3c(c2=O)N(CC2CC2)C(=O)CS3)c1 : 1190
Cc1cc(C(=O)N2CCCn3nc(-c4cccs4)cc3C2)no1 : 791
COc1ccc(NC(=O)Nc2cccc(-c3ccc(N4CCOCC4)nn3)c2)cc1Cl : 715
CC(C)(C)c1ccc(OCC(=O)Nc2ccnn2Cc2ccco2)cc1 : 1010

P: O=c1ccc(-c2ccc3c(c2)OCO3)nn1CCc1nc(-c2ccccc2Br)no1
Q: CC1=C(C(=O)NC2CCN(Cc3ccccc3)CC2)C2(CCCCC2)OC1=O
Data request: Higher RP-LC retention time between P and Q ? State your choice using its label.
Data returned: P

====

# assay: gradient 5% acetonitrile 3 min, to 50% in 2 min, to 85% in 15 min, held 3 min, 100 µL/min
# run-conditions: column: Zorbax Extend-C18 2.1 x 50 mm; eluents: water / acetonitrile, 0.1% formic acid
readout-kind: RP-LC retention time (s)

O=C(c1ccc(-c2nccnc2N2CCCC2)cc1)N1CCC(Cc2ccccc2)CC1 : 1110
COc1ccc(CNC(=O)NCC(c2ccccc2Cl)N(C)C)cc1 (stereo not given) : 577
O=C(Nc1ccc(F)c(Cl)c1)Nc1c(-c2ccncc2)nc2ccccn12 : 628

1: COCCNC(=O)Cn1nc(C)c2c(C)n(-c3ccccc3)nc2c1=O
2: CCOc1ccc(CCNC(=O)c2ccc3c(c2)N(CC)C(=O)c2ccccc2O3)cc1OCC
Data request: Higher RP-LC retention time between 1 and 2 ? State your choice using its label.
Data returned: 2
(2: 966 s, 1: 649 s)

====

# assay: gradient 5% acetonitrile 3 min, to 50% in 2 min, to 85% in 15 min, held 3 min, 100 µL/min
# run-conditions: column: Zorbax Extend-C18 2.1 x 50 mm; eluents: water / acetonitrile, 0.1% formic acid
readout-kind: RP-LC retention time (s)

In the examples that follow, each entry is paired with its recorded RP-LC retention time.
O=C(/C=C/c1ccccc1)Nc1nc(-c2ccccc2)cs1 : 1070
Cc1cn(C2CC(O)C(CO)O2)c(=O)n(Cc2ccccc2)c1=O (centres undefined) : 697
COc1cccc(NC(=O)Cn2c3ccccc3n3c(=O)cc(-c4ccc(F)cc4)nc23)c1 : 961
Cc1ccc(-n2ncc3c(=O)n(Cc4nc(-c5cccc(C(F)(F)F)c5)no4)cnc32)cc1 : 1180
O=C(CC1CCCC1)N1CCC(N(Cc2cccnc2)C2CCOCC2)CC1 : 604
COc1cccc(Oc2nccnc2N2CCC(C(=O)NCCC3=CCCCC3)CC2)c1 : 1050
CCOC(=O)c1[nH]c(C)c(CCC(=O)N2CCC(C(=O)NC3CCCCC3)CC2)c1C : 778
N#Cc1cccc(NC(=O)Cn2nc3n(c2=O)CCCCC3)c1 : 674

P: CCCNC(=O)C1CCCN(c2nc3ncn(CC(=O)Nc4ccccc4OCC)c(=O)c3s2)C1 (centres undefined)
Q: CCn1cc(-c2nc(C)c(C(=O)Nc3cc(F)cc(F)c3)s2)c2cccnc21
Data request: Higher RP-LC retention time between P and Q ? State your choice using its label.
Data returned: Q

1: O=C1CCN(C2OC(CO)C(O)C2O)C(=O)N1 (centres undefined)
2: O=C(c1ccsc1)N(CCc1ccccc1)Cc1ccccn1
Data request: Between item 1 and item 2 , which reported RP-LC retention time is smaller? State your choice using its label.
Data returned: 2
(2: 684 s, 1: 1040 s)
